- ASSAY PROCEDURE: basal RPMI8226 mitochondrial membrane potential changes, profiling panel, cell-based, JC-1 fluorescence, 24 h, 100 nL compound (AID 1169); further: test concentration not given here
- CONDITION CONTEXT: RPMI8226 myeloma, JC-1 mitochondrial potential fluorescence, higher = more signal
OUTCOME MEASURE: z-score
Answers are plain numbers.

Solved entries:
>>> data_value("COC(=O)[C@H](C)NC(=O)CCC1CC(OC(=O)NCc2ccc3c(c2)OCO3)CC2(CCCC(COC(=O)NCCOc3ccccc3)O2)O1 (some centres undefined)")
-0.647
>>> data_value("O=C1[C@H]2[C@H]3[C@H](O)[C@H](O)CC(=NOCc4ccccc4)[C@H]3CC[C@H]2C(=O)N1c1cccc(Oc2ccccc2)c1")
0.341

Give one value of z-score per listed compound.
1. CN1C(=O)C2C(C1=O)C1C=C(CCCO)C2C(c2ccc(CN3CCCC3)cc2)N1C (centres undefined)
2. COc1ccc([Si](C)(C)[C@H]2[C@H](CCO)O[C@@]3(C(=O)N(Cc4cccc(NC(=O)[C@H](C)O)c4)c4ccccc43)[C@@H]2C)cc1
3. COCCOC(=O)N1C(=O)[C@@]2(c3cc(C#CC4(O)CCCCCC4)ccc31)[C@H](c1ccc(OCCO)cc1)N1[C@H](c3ccccc3)[C@H](c3ccccc3)OC(=O)[C@H]1[C@@H]2C(=O)NC[C@H](O)c1ccccc1
4. CCOC(=O)NN=C1C[C@@H](O)[C@@H](O)[C@@H]2[C@@H]3C(=O)N(C(C)(C)C)C(=O)[C@@H]3CC[C@@H]12
5. CCOC(=O)[C@H](CC(C)C)NC(=O)CCC1CC(OC(=O)NCc2cccc3ccccc23)CC2(CCCC(COC(=O)NCCN3CCOCC3)O2)O1 (some centres undefined)
6. COc1ccc(COC(=O)NN=C2C[C@@H](O)[C@@H](O)[C@@H]3[C@@H]4C(=O)N(Cc5ccc6c(c5)OCO6)C(=O)[C@@H]4CC[C@@H]23)cc1

Outgoing:
-0.667
-1.02
-0.924
0.329
-0.268
-0.3

====

Please provide measured z-score for the entries that follow.
- ASSAY PROCEDURE: basal RPMI8226 mitochondrial membrane potential changes, profiling panel, cell-based, JC-1 fluorescence, 24 h, 100 nL compound (AID 1169); further: test concentration not given here
- CONDITION CONTEXT: RPMI8226 myeloma, JC-1 mitochondrial potential fluorescence, higher = more signal
Give bare numbers.

>>> data_value("COc1cccc([C@H]2Oc3ccc(OC)cc3C(=NO[C@H](C)c3cn([C@@H]4COC[C@H]4O)nn3)[C@@H]2O)c1")
0.161
>>> data_value("CC(=O)OC[C@H]1O[C@H](CC=NOC[C@@H](C)[C@H](OCc2ccccc2)C(C)C)C=C[C@@H]1OC(C)=O")
1.17
>>> data_value("CC(CCC(=O)OC[C@H]1O[C@H](C#Cc2ccccc2)C=C[C@@H]1Oc1ccc(C)cc1)=NOC[C@@H](O)COCc1ccco1")
-0.31
>>> data_value("CO[C@H]1COC(=O)[C@H](C)NC(=O)[C@@H](C)COC(=O)CC=C[C@@H]1C")
-0.282
>>> data_value("CC[C@@H](c1ccccc1)n1c(=O)n2n(c1=O)[C@H]1[C@H](O)[C@@H]3O[C@@H]3C(=NOCC(C)C)[C@H]1CC2")
-0.0693

Incoming: Returns the measured z-score for the input molecule. Input: "C=CC[C@@H]1C=C[C@H](ON=C[C@@H](OC)[C@H](C)C=CCC(=O)OC)[C@@H](CO)O1"
Outgoing: 0.461

Ref: PubChem BioAssay
